tested on: OVCAR-3 ovarian; experiment: NCI-60 one-dose screen, 48 h (100 = growth as untreated, 0 = no growth, -100 = all killed); conditions: 10 µM unless noted
The panel holds about 83,000 compounds, 20% with a hit somewhere; the sample as a whole holds those more often.
# growth annotations
State the answer as a number, implicitly in %.

Worked set:
- Compound string: "Cc1ccc(S(=O)(=O)Nc2ccc(Cl)cc2)cc1"
  Test system: "OVCAR-3 ovarian"
  growth (%): 115
- Compound string: "N#Cc1ccc(-c2ccc3c(c2)NC(=O)/C3=C\\c2ccc[nH]2)cc1"
  Test system: "OVCAR-3 ovarian"
  growth (%): 88.8
- Compound string: "COc1ccc(-c2nc(N/N=C/c3c[nH]c4ccccc34)nc(N3CCOCC3)c2C#N)cc1"
  Test system: "OVCAR-3 ovarian"
  growth (%): 90.4
- Compound string: "Cn1ncc2c(Nc3ccccc3Cl)nc(Cl)nc21"
  Test system: "OVCAR-3 ovarian"
  growth (%): 164
- Compound string: "O=C1/C(=C/c2ccc(O)cc2)COc2ccc(-c3ccccc3)cc21"
  Test system: "OVCAR-3 ovarian"
  growth (%): 56.5

# next molecule below
Entry "Nc1c(C(=O)Nc2cccc3ccncc23)sc2nc3c(cc12)C(=O)CCC3" needs its growth filled in; supply it.
3.84

###

system: M14 melanoma; test: NCI-60 one-dose screen, 48 h (100 = growth as untreated, 0 = no growth, -100 = all killed); conditions: 10 µM unless noted
About 83,000 compounds went through this panel and 20% of them were active in at least one assay; those are over-represented in the sample as a whole.
Listed here are compounds together with their documented growth.
Answer with a number only, understood to be in %.

Examples from the recorded data:
- Compound: "O=C(Nc1ccc2ncnc(Nc3ccc(Oc4cccc(F)c4)c(Cl)c3)c2c1)c1ccc(CNCCO)cc1"
  Readout label: "growth"
  Experimental result: -45.9
- Compound: "O=[N+]([O-])c1cccc(-c2nc(-c3ccc(Cl)cc3Cl)cn2-c2ccccc2)c1"
  Readout label: "growth"
  Experimental result: -71.6
- Compound: "COc1ccc(Cc2nc3cc(OC)c(OC)cc3c(=O)[nH]2)cc1"
  Readout label: "growth"
  Experimental result: 48.8
- Compound: "COc1ccc2nc(N=Nc3c(O)ccc4ccccc34)sc2c1"
  Readout label: "growth"
  Experimental result: 1.92
- Compound: "Cc1ccccc1-c1cc(Cc2ccc(F)cc2)c(=O)[nH]n1"
  Readout label: "growth"
  Experimental result: 118
- Compound: "N#C/C(=C\\c1ccc(Br)cc1)n1nnc2cccc(F)c21"
  Readout label: "growth"
  Experimental result: 10.9
- Compound: "N#Cc1cc(-c2nc3ccccc3s2)c(=O)n(NS(=O)(=O)c2ccc(Cl)cc2)c1N"
  Readout label: "growth"
  Experimental result: 97.5
- Compound: "CS(=O)(=O)c1ccc(-c2cc(-c3nnc(SCC(=O)Nc4ccc(C(=O)/C=C/c5ccc(Cl)cc5)cc4)n3-c3ccccc3)c3ccccc3n2)cc1"
  Readout label: "growth"
  Experimental result: 97.5

Please look at this compound and report its growth: "CC(=O)[C@@H]1CC[C@]2(C(N)=O)CC[C@]3(C)[C@H](CC[C@@H]4[C@@]5(C)CCC(=O)C(C)(C)[C@@H]5CC[C@]43C)[C@@H]12"
93.4

Quote growth reported for "Cc1ccc2nc3c(cc2c1)CSc1nnc(-c2ccc[nH]c2=S)n1N3" please.
93

Specify reported growth for the compound shown: "O=C(Nc1nc(-c2ccccc2Cl)cs1)c1cc(-c2ccccc2)nc2ccc(Cl)cc12"
4.1

Name the recorded growth of the compound listed here: CCCCCCC/C=C/[C@H]1O[C@]2(O)C(=O)C=C3C[C@@H](O[C@@H]4O[C@H](CO)[C@@H](O)C(O)[C@@H]4O)C[C@@H]3[C@H]2C=C1C (some centres not stated)
-23.6

###

tested on: M14 melanoma; test: NCI-60 one-dose screen, 48 h; details: 10 µM unless noted
About 83,000 compounds went through this panel and 20% of them were active in at least one assay; those are over-represented in the sample as a whole. Calls of active or inactive are those of the source. How the source made its calls: active means growth percent below 10; inactive means the rest.
Hi! Could you answer with just one of these? active, inactive

Answered cases to consult:
- Compound: "O=C(N/N=C/c1ccc(F)cc1)c1ccccc1Nc1cccc(C(F)(F)F)c1"
  Qualitative label: "inactive"
- Compound: "COc1ccc(C(=O)c2cc3c(N)c(C(=O)Nc4cccc(Cl)c4C)sc3nc2C)cc1"
  Qualitative label: "active"
- Compound: "CC(=O)NCCCS(=O)(=O)O"
  Qualitative label: "inactive"
- Compound: "C/C(=C(/c1ccccc1)c1ccc(OCC(O)CN2CCOCC2)cc1)c1ccccc1 (stereo not given)"
  Qualitative label: "active"
- Compound: "COc1ccc(C2CC(c3cccc(Nc4ccncc4)c3)=NN2c2cc(Cl)cc(Cl)c2)cc1 (stereo not given)"
  Qualitative label: "inactive"
- Compound: "CN1CCN(c2c(F)cc(NC3=C(Cl)C(=O)c4ncccc4C3=O)cc2F)CC1"
  Qualitative label: "inactive"
- Compound: "N#CC1=C(N)Oc2c(ccc3ccccc23)C1c1ccc([N+](=O)[O-])cc1 (stereo not given)"
  Qualitative label: "inactive"
- Compound: "COC(=O)C1=C(C(=O)ONCCN(C)C)C2C=CC1(C(Cc1ccccc1)Nc1ccc(F)cc1)O2 (stereo not given)"
  Qualitative label: "inactive"

Field: outcome | Entry: COc1cc(NCC(O)CN(CC(C)C)CC(C)C)c2nc(C)ccc2c1 (stereo not given)
inactive

Hi, sorry to bother you, what did the test record for "Nc1nc(SN=Nc2ccc(S(N)(=O)=O)cc2)c2[nH]cnc2n1" ?
inactive

Please share the test call associated with "COc1ccc(C(=O)c2cc3c(N)c(C(=O)Nc4ccc(Cl)cc4)sc3nc2C)cc1" .
inactive

Any idea what this test logged for "O=C1/C(=C\c2cn(Cc3ccccc3)c3ccc(Br)cc23)c2ccccc2N1c1c(Cl)cccc1Cl" ?
inactive

Test call, this compound: "O=C1/C(=C/c2ccc(O)cc2)COc2ccc(-c3ccccc3)cc21"
inactive

Name the outcome recorded for CC(C)Cc1ccc(C(C)C(=O)NCc2ccc(Cn3c(=O)sn(-c4ccc(Cl)cc4)c3=O)cc2)cc1 (stereo not given) in the assay.
inactive

Could you please tell me the result logged for c1ccc(N2N=C(c3cccc(Nc4ccncc4)c3)CC2c2ccc3c(c2)OCO3)cc1 (stereo not given) in this assay?
inactive

###

tested on: U251 CNS; test: NCI-60 one-dose screen, 48 h; conditions: 10 µM unless noted
About 83,000 compounds went through this panel and 20% of them were active in at least one assay; those are over-represented in the sample as a whole. Activity calls are given as the source filed them. How the source made its calls: active means growth percent below 10; inactive means the rest.
// classify into T (active), F (inactive)

Write down the call the test reported for this molecule. Item: "Cc1ccc(C(=O)Nc2ccccc2C(=O)N/N=C(\c2ccccc2)c2ccccn2)cc1"
F

###

test system: NCI-H522 lung; assay: NCI-60 one-dose screen, 48 h (100 = growth as untreated, 0 = no growth, -100 = all killed); conditions: 10 µM unless noted
Compounds without any hit were thinned out: in the full panel of roughly 83,000, 20% have a hit.
Field 'label' (enum: met / not met). Set to met when growth is strictly under 80%; else not met.

- Compound: "CCCCCCCCCCCC(=O)C(CCCCCCCCCC)C(=O)Nc1ccccc1 (centres undefined)"
  Qualitative label: "not met"
- Compound: "O=C(Nc1cccc(Cl)c1)c1cc(Cl)ccc1O"
  Qualitative label: "met"
- Compound: "O=C(Cc1ccc(/C=C/C(=O)c2ncc[nH]2)cc1)Nc1ccc(C(F)(F)F)cc1"
  Qualitative label: "met"
- Compound: "C=C1C(=O)O[C@H]2[C@H]1CC/C(COC(=O)/C=C/c1c[nH]c3ccccc13)=C\\CC[C@@]1(C)O[C@@H]21"
  Qualitative label: "met"
- Compound: "COc1cc(CCNc2nc3cc(N)cc(N)c3nc2-c2ccccc2)cc(OC)c1"
  Qualitative label: "met"
- Compound: "COc1ccc(/C=C/C(=O)c2ccc(Nc3ncnc4ccccc34)cc2)cc1OC"
  Qualitative label: "not met"
- Compound: "COc1ccc(/C=C(/c2ccccc2)[N+](=O)[O-])cc1"
  Qualitative label: "met"
- Compound: "Cn1c2c(Cl)c(Cl)ccc2c2cc(N)[nH]c(=O)c21"
  Qualitative label: "not met"
- Compound: "CSc1nnc2c(=O)n(C)c(=O)n(C)c2n1"
  Qualitative label: "not met"
- Compound: "COc1ccc(C(O)c2cc3c(N)c(C(=O)Nc4ccc(Cl)cc4)sc3nc2C)cc1 (centres undefined)"
  Qualitative label: "met"

Input "CCn1ccnc1C(=O)/C=C/c1ccc(CC(=O)Nc2ccc(F)cc2)cc1" ; condition: growth strictly below 80%. Does it hold?
met

Bench note: check whether "Cc1[nH]n(C(=O)c2ccncc2)c(=O)c1N=Nc1ccc(F)c(Cl)c1" shows growth below 80%
not met

# strict comparison: is reported growth < 80%? input = "O=C(CN1CCOCC1)Nc1ccc2ncnc(Nc3ccc(OCc4cccc(F)c4)c(Cl)c3)c2c1"
met

Please indicate whether the reported growth of COc1cc(C2NC(c3cc(OC)c(OC)c(OC)c3)C(C#N)(C#N)C2(C#N)C#N)cc(OC)c1OC (centres undefined) is strictly below 80%.
not met

Report whether reported growth is lower than 80% (strictly) for CN(Cc1ccccc1)c1nc(Cl)c(C2CC(c3ccc(Cl)cc3)=Cc3[nH][nH]c(=O)c32)s1 (centres undefined)
not met
